- Tested on: biotinyl-Met-oxazolone
- Assay Comment: self-aminoacylation, catalytic enhancement (BMO) (fold over background); higher = more active; k-Seq, kA / k0A0; sequences stand for … in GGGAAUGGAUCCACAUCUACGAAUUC…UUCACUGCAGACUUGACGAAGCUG
Fewer inactive variants are shown than the library holds.
Would you mind labelling by self-aminoacylation? At or over 1 is 1.0, under is 0.0.

Lookup: Test whether the sequence AAGUUUGCAAAUAGUCACAAG [Fam3.1 aminoacylation ribozyme variant] records self-aminoacylation of 1 or higher.
Found: 1.0

Lookup: I'd appreciate it if you could say whether CUAGUUCAAAGAAUCGGUCUG [Fam1A.1 aminoacylation ribozyme variant] has self-aminoacylation at least equal to 1.
Found: 1.0
